System: NF-κB
TEST: NF-κB luciferase reporter assay in LPS-induced RAW264.7 cells
Assay type: cell-based
MEASUREMENT_CONTEXT: Mus musculus, RAW264.7, LPS induced RAW264.7 cells stably transfected with NF-κB luciferase reporter; treated 4 h, then LPS 100 ng/mL for 6 h; read-out: EC50, inhibition of NF-κB production
ENDPOINT_NAME: EC50 (µM)

CC(C)=C1NC(=O)C(O)(C2C=CCC(C)O2)C1=O (stereo not drawn) = 18.5
CC(C)=C1NC(=O)C(O)(CC=CCC(C)O)C1=O (stereo not drawn) = 26.5
COC1CC(C2(O)C(=O)NC(=C(C)C)C2=O)CC(C)O1 (stereo not drawn) = 23.1

The origin of these recorded values is paper PMC9031249.
